Origin of values: PubChem BioAssay AID1508591

# Condition Set: rat; liver microsomes; pH 7.4; 15.0 min; 1.0 µM
Property: half-life (min)
Report only the number, with the unit min understood.

Worked examples follow.
> print(dat)
                                    molecule   property  unit.abbreviation  reported.measurement
 1  Cc1cc(-c2nnc3n2CCCCC3)c(C)n1-c1ccc(C#N)cc1  half-life                min                   3.6
 2  CCN(CC)C(=O)c1coc(COc2ccc3c(c2)C(c2cccc(F)c2)N(C(=O)C(C)C)CC3)n1 (stereo not drawn)  half-life                min                  1.28
 3  COc1cccc(CNc2ccc(S(=O)(=O)Nc3cccc4ccncc34)cc2)c1O  half-life                min                    10
 4  Cc1cccc(-n2cnc3cc(C(=O)N4CCCC(C)C4)ccc32)c1 (stereo not drawn)  half-life                min                   2.5
 5  NC(=O)C1CCN(c2ncc(-c3ccc4c(c3)OC(F)(F)O4)s2)CC1  half-life                min                   9.4
 6      Cc1cccc(C)c1Nc1c(-c2cccs2)nc2ncccn12  half-life                min                  3.72
 7  Cc1cccc2nc(-c3cccnc3)c(Nc3ccc(C(C)C)cc3)n12  half-life                min                     1
 8                 COc1ccc(C(=O)CCN(C)C)cc1F  half-life                min                  1.08
 9  c1ccc(-c2ccc(CNc3nc(-c4ccccn4)nnc3-c3ccccc3)cc2)cc1  half-life                min                  7.73
10     CC(=O)c1sc(NC(=O)c2ccco2)nc1-c1ccccc1  half-life                min                   1.8

Consider now this further molecule.
response.value for O=S(=O)(Nc1ccccc1N1CCCCC1)c1ccc(Cl)s1 (field: half-life) = 2.02

----------
# Condition Set: rat; liver microsomes; pH 7.4; 15.0 min; 1.0 µM
Property: half-life (min)
Report only the number, with the unit min understood.

Worked examples follow.
> print(dat)
                                   compound   property  reported.measurement
1  CCc1cccc(NC(=O)C(Cc2ccccc2)NS(=O)(=O)c2cccs2)c1 (stereo not given)  half-life                  1.44
2  O=C(c1nc(-c2ccc(Cl)nc2)c2ccccn12)N1CCCC1  half-life                  8.91

Consider now this further compound.
response.value for Cc1ccc(S(=O)(=O)NCCC(=O)Nc2nc(-c3ccccc3)cs2)cc1 (field: half-life) = 2.4

----------
# Condition Set: rat; liver microsomes; pH 7.4; 15.0 min; 1.0 µM
Property: half-life (min)
Report only the number, with the unit min understood.

Worked examples follow.
> print(dat)
                                     smiles  reported.measurement
1  COc1cccc(C(=O)NCCSc2c(-c3ccc(F)cc3)[nH]c3ccccc23)c1OC                  1.26
2  Cn1c(=O)c2cc(C(=O)NCCCN3CCN(c4ccccc4F)CC3)sc2c2ccccc21                  1.97
3  Cn1ccc2c(C(=O)NCc3cccnc3)nc(-c3ccccc3C#N)cc21                  5.52

Consider now this further compound.
response.value for CN(C)c1cc(-c2nc(Nc3ccc(F)c(F)c3)c3ccccc3n2)ccn1 (field: half-life) = 13
